Assay: log P determination by 19F NMR shake-flask method with internal fluorinated reference (octanol/water)
Conditions: octanol/water, Average logP, 25 °C; reference TFE (+0.36)
Rule: measured logP below 0.7 gets T; anything equal to or greater than 0.7 gets F.

Take the molecule CCCC(F)CO (stereo not drawn) [compound 33, 2-fluoropentan-1-ol] and say whether its logP is less than 0.7.
F

Take the molecule OCCCC(F)(F)F [compound 23, 4,4,4-trifluoro-1-butanol] and say whether its logP is less than 0.7.
F

Take the molecule CC(F)CCO (stereo not drawn) [compound 22, 3-fluorobutan-1-ol] and say whether its logP is less than 0.7.
T

Take the molecule OCCC(F)(F)F [compound 12] and say whether its logP is less than 0.7.
T

Take the molecule CC(O)CC(C)(F)F (stereo not drawn) [compound 28] and say whether its logP is less than 0.7.
T

* * *

Test: log P determination by 19F NMR shake-flask method with internal fluorinated reference (octanol/water)
Conditions: octanol/water, logP, single experiment; mA 2.0 mg, mREF 0.8 mg; reference CF3CH2OH
Test readout: logP
Answer as a number with no unit attached.

What the record says about OCC(F)(F)C(F)(F)F [compound 13, CF3CF2CH2OH] : logP is 1.2

* * *

Experiment: log P determination by 19F NMR shake-flask method with internal fluorinated reference (octanol/water)
Settings: octanol/water, logP Average, seven acquisitions (Table SI7)
Test readout: logP

What the record says about CCCC(F)CO (stereo not shown) [compound 33, 2-fluoropentan-1-ol] : logP is 0.521

* * *

Experiment: log P determination by 19F NMR shake-flask method with internal fluorinated reference (octanol/water)
Details: octanol/water, log P units more lipophilic than Glc, relative to glucose
Test readout: logP

What the record says about OC[C@H]1OC(O)[C@H](F)[C@@H](F)[C@@H]1O (stereo partly shown) : logP is ~2.1

* * *

Experiment: log P determination by 19F NMR shake-flask method with internal fluorinated reference (octanol/water)
Conditions: 25 °C; reference TFE (+0.36)
The entries below are paired with their reported Average logP.

Before answering, review these 3 worked examples.
>  <Smiles entry>
OC(CF)CF

>  <Observed measurement>
-0.42

$$$$
>  <Smiles entry>
OCCCC(F)(F)F

>  <Observed measurement>
+0.91

$$$$
>  <Smiles entry>
OCCCCC(F)(F)F

>  <Observed measurement>
+1.22

$$$$

Continue with the next compound.
What the record says about `OCC(F)(F)C(F)(F)F` : Average logP is +1.20

* * *

Test: log P determination by 19F NMR shake-flask method with internal fluorinated reference (octanol/water)
Conditions: octanol/water, average logP, mA 2.0 mg, mREF 0.8 mg; reference CF3CH2OH
Test readout: logP
Answer as a number with no unit attached.

What the record says about OCC(F)(F)C(F)(F)F [compound 13, CF3CF2CH2OH] : logP is 1.2

* * *

Test: log P determination by 19F NMR shake-flask method with internal fluorinated reference (octanol/water)
Conditions: octanol/water, logP, single experiment; reference FE (-0.75)
Test readout: logP

What the record says about OC[C@H]1OC(O)[C@H](F)[C@@H](F)[C@@H]1O (stereo partly shown) : logP is -1.11

* * *

Experiment: log P determination by 19F NMR shake-flask method with internal fluorinated reference (octanol/water)
Details: octanol/water, logP, single experiment; reference TFE (+0.36)
Test readout: logP
Answer as a number with no unit attached.

Before answering, review these 5 worked examples.
>  <Compound>
OC[C@H]1OC(O)C(F)(F)C(F)(F)[C@@H]1O (stereo partly drawn)

>  <logP>
-0.316

$$$$
>  <Compound>
Oc1ccccc1F

>  <logP>
1.7

$$$$
>  <Compound>
C[C@H](O)C[C@@H](C)F

>  <logP>
0.476

$$$$
>  <Compound>
CC(F)CCO (stereo not drawn)

>  <logP>
0.166

$$$$
>  <Compound>
OCCCCC(F)(F)F

>  <logP>
1.22

$$$$

What the record says about CC(O)CC(F)F (stereo not drawn) : logP is 0.42

What the record says about CC(F)CCCO (stereo not drawn) : logP is 0.517

What the record says about `CC(C)(O)C(F)(F)F` : logP is 1.03

What the record says about `OCCCC(F)(F)F` : logP is 0.918

* * *

Experiment: milogP calculated using Molinspiration Cheminformatics
Conditions: Table SI14
The entries below are paired with their reported ΔlogP (milogP vs logP exp).

>  <Compound>
OCCC(F)F

>  <ΔlogP (milogP vs logP exp)>
+0.48

$$$$

Continue with the next compound.
What the record says about `OCC(F)(F)C(F)(F)F` : ΔlogP (milogP vs logP exp) is +0.05

* * *

Experiment: log P determination by 19F NMR shake-flask method with internal fluorinated reference (octanol/water)
Settings: octanol/water, logP, multiple reprocessing of one FID (Table SI8), single reprocessing
Test readout: logP
Answer as a number with no unit attached.

What the record says about CCCC(F)CO (stereo not shown) : logP is 0.513

* * *

Assay: log P determination by 19F NMR shake-flask method with internal fluorinated reference (octanol/water)
Details: octanol/water, logP Average, seven reprocessings (Table SI8)
Test readout: logP
Answer as a number with no unit attached.

What the record says about CCCC(F)CO (stereo not shown) : logP is 0.518

* * *

Assay: physchem
Settings: logP, single experiment; reference TFE (+0.36)
Test readout: logP

>  <Smiles entry>
OC(CF)CF

>  <Observed measurement>
-0.42

$$$$

What the record says about `OCCCCF` : logP is 0.09

* * *

Test: physchem
Settings: error (mean logP to three decimals)
Test readout: logP
Answer as a number with no unit attached.

Before answering, review these 5 worked examples.
>  <Molecule>
OCC(F)(F)C(F)(F)CO

>  <Observed measurement>
-0.109

$$$$
>  <Molecule>
CC(O)C(F)(F)C(F)F (stereo not shown)

>  <Observed measurement>
1.05

$$$$
>  <Molecule>
CC(O)C(F)(F)C(F)(F)F (stereo not shown)

>  <Observed measurement>
1.53

$$$$
>  <Molecule>
OCCC(F)(F)C(F)(F)F

>  <Observed measurement>
1.3

$$$$
>  <Molecule>
CC(O)(C(F)(F)F)C(F)(F)F

>  <Observed measurement>
2.08

$$$$

What the record says about `OC(CF)CF` : logP is -0.421

What the record says about `OCCCCCF` : logP is 0.524

What the record says about `OCCCC(F)(F)C(F)F` : logP is 0.974

What the record says about CC(O)CCF (stereo not shown) : logP is 0.084

What the record says about `OCCCC(F)(F)C(F)(F)F` : logP is 1.72

* * *

Experiment: log P determination by 19F NMR shake-flask method with internal fluorinated reference (octanol/water)
Details: octanol/water, logP, 19F NMR, 25 °C, average value
Would you please tag the item 1 when its logP is 0.7 or above, and -1 when it is below?

Illustrative cases are given below, each with its answer.
>  <Molecule>
O=C[C@H](O)[C@@H](O)[C@H](O)[C@H](O)CF

>  <Category>
-1

$$$$
>  <Molecule>
O=C[C@H](O)[C@@H](F)[C@@H](O)[C@H](O)CO

>  <Category>
-1

$$$$
>  <Molecule>
CC(O)CC(F)F (stereo not drawn)

>  <Category>
-1

$$$$
>  <Molecule>
OC[C@H]1OC(O)[C@H](F)[C@@H](F)[C@@H]1O (stereo partly drawn)

>  <Category>
-1

$$$$
>  <Molecule>
CC(C)(C)[C@H]1CC[C@H](O)[C@@H](F)C1 (relative stereo)

>  <Category>
1

$$$$
>  <Molecule>
CC[C@H](O)C[C@@H](F)CC

>  <Category>
1

$$$$

logP >= 0.7 for `Oc1ccccc1F` ?
1

logP >= 0.7 for `O=C[C@@H](F)[C@@H](O)[C@H](O)[C@H](O)CO` ?
-1

logP >= 0.7 for `CC[C@H](O)C[C@H](F)CC` ?
1

logP >= 0.7 for `O=C[C@H](F)[C@@H](O)[C@H](O)[C@H](O)CO` ?
-1

logP >= 0.7 for `C[C@H](O)C[C@H](C)F` ?
-1

* * *

Experiment: log P determination by 19F NMR shake-flask method with internal fluorinated reference (octanol/water)
Settings: octanol/water, Average logP, reference 4,4,4-trifluoro-1-butanol (TB, +0.91EXP)
Test readout: logP
Answer as a number with no unit attached.

>  <Smiles entry>
CC[C@H](O)C[C@@H](F)CC

>  <Test readout>
logP

>  <Observed measurement>
1.71

$$$$

What the record says about `CC[C@H](O)C[C@H](F)CC` : logP is 1.58

* * *

Assay: log P determination by 19F NMR shake-flask method with internal fluorinated reference (octanol/water)
Settings: octanol/water, error (mean logP to three decimals), internal validation, reference -1.01EXP
Test readout: logP
Answer as a number with no unit attached.

What the record says about OC[C@@H](F)[C@@H](F)CO [compound 40] : logP is -0.98

* * *

Test: log P determination by 19F NMR shake-flask method with internal fluorinated reference (octanol/water)
Details: octanol/water, logP, single experiment; mA 70.0 mg, mREF 30.0/70.0 mg
Test readout: logP

What the record says about OCC(F)(F)C(F)(F)F [compound 13, CF3CF2CH2OH] : logP is 1.18
